# target: human MC3R (human, UniProt P41968 1-323)
# Sequence (P41968 whole entry): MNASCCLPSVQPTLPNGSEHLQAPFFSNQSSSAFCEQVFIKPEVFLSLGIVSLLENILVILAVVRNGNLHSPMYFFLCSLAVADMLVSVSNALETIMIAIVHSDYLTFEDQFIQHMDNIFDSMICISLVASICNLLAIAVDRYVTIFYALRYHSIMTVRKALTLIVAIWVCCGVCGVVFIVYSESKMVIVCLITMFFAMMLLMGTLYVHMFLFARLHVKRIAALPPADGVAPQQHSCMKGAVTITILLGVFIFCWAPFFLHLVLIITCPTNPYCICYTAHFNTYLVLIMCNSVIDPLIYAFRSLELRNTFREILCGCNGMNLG
# experimental-details: cell-based or functional assay
Positions of bridges follow the written chain, without caps; N, C: chain ends. Non-standard residues stand in square brackets, D forms with d. dPhe(4-Br) = N[C@H](Cc1ccc(Br)cc1)C(=O)O; Nle = CCCC[C@H](N)C(=O)O
Please provide measured cAMP EC50 for the entries that follow.
One number for each entry, in nM.

[
  {
    "binder": "Ac-R[Nle]CR[dPhe(4-Br)]RFC-NH2 (disulfide 3-8; SMILES CCCC[C@H](NC(=O)[C@H](CCCNC(=N)N)NC(C)=O)C(=O)N[C@H]1CSSC[C@@H](C(N)=O)NC(=O)[C@H](Cc2ccccc2)NC(=O)[C@H](CCCNC(=N)N)NC(=O)[C@@H](Cc2ccc(Br)cc2)NC(=O)[C@H](CCCNC(=N)N)NC1=O) [CTX-1623]",
    "parameter-measured": "cAMP EC50",
    "quantitative-readout": 3.9
  },
  {
    "binder": "Ac-RC[dA]R[dF]R[dW]C-NH2 (disulfide 2-8; SMILES CC(=O)N[C@@H](CCCNC(=N)N)C(=O)N[C@H]1CSSC[C@@H](C(N)=O)NC(=O)[C@@H](Cc2c[nH]c3ccccc23)NC(=O)[C@H](CCCNC(=N)N)NC(=O)[C@@H](Cc2ccccc2)NC(=O)[C@H](CCCNC(=N)N)NC(=O)[C@@H](C)NC1=O) [CTX-1263]",
    "parameter-measured": "cAMP EC50",
    "quantitative-readout": 11
  }
]

Let us examine a further case.
Query :: Given the binder {CH2CO}-GR[dF]RWC-NH2 (thioether N-6; SMILES N=C(N)NCCC[C@@H]1NC(=O)CNC(=O)CSC[C@@H](C(N)=O)NC(=O)[C@H](Cc2c[nH]c3ccccc23)NC(=O)[C@H](CCCNC(=N)N)NC(=O)[C@@H](Cc2ccccc2)NC1=O) [CTX-1645] , what is its reported cAMP EC50?
Result :: 68
